tgt: Cellular tumor antigen p53 (Homo sapiens)
assay overview: TOX21_p53_BLA_p5_ratio: Tox21 HCT-116 p53 Agonism Beta-lactamase Assay, Ratio, Phase 5 (AID 2283599)
Results filed as inconclusive are left out. Calls of active or inactive are those of the source. Rule for the calls: active = hit-call score of the fitted dose curve at least 0.9, where 1 is the maximum; inconclusive = response in the unintended direction; inactive = score below 0.9.
readout name: outcome

CC(=O)[C@H]1CC[C@H]2[C@@H]3CCC4=CC(=O)CC[C@]4(C)[C@H]3CC[C@]12C inactive
CCOC(=O)c1ccc(O)cc1 inactive
O=C(O)c1ccccc1 inactive

---

assay overview: CCTE_Shafer_MEA_acute_per_network_burst_electrodes_number_mean: CCTE's Neural Acute Assay for Mean Number of Electrodes in a Network Burst, Shafer Lab (AID 2284021);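 note: curves fitted for decreases only so hits reduce electrodes per burst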
Active and inactive are the calls of the source. Rule for the calls: active = hit-call score of the fitted dose curve at least 0.9, where 1 is the maximum; inactive = score below 0.9.
Valid outcomes are listed here; reply with one: 1 (yes) for active, 0 (no) for inactive

Worked examples follow.
compound	answer label
O=C(O)c1ccccc1	0 (no)
CCCCC(CC)CN1C(=O)C2C3C=CC(C3)C2C1=O (configuration not stated)	0 (no)
O=C(Nc1ccc([N+](=O)[O-])cc1Cl)c1cc(Cl)ccc1O	1 (yes)
Oc1ccc(C(c2ccc(O)cc2)C(Cl)(Cl)Cl)cc1	1 (yes)
CC(C)CCCCCCc1ccc(O)cc1	0 (no)

Request: Dear colleague, could you share the recorded outcome for CCNc1nc(N)nc(Cl)n1 when you have a moment?
Response: 0 (no)

Request: Dear colleague, could you share the recorded outcome for N#CSCSc1nc2ccccc2s1 when you have a moment?
Response: 1 (yes)

Data origin, for the record: PubChem BioAssay (EPA / NIEHS)
